Cited source: the NIST ThermoML archive (doi:10.1016/j.jct.2006.01.015)

# experimental.parameters: 313.15 K; 101 kPa; Liquid
Lab note: anything with mass density at or over 900 kg/m3 counts as Satisfied; the rest go in Not satisfied.

NC=O [formamide]
Satisfied
CNC(C)=O [N-methylacetamide]
Satisfied
CN(C)C=O [dimethylformamide]
Satisfied

Shift focus to the following entry.
Please check the record CC#N and state if its mass density is at or above 900 kg/m3.
Not satisfied

* * *

Kindly state mass density for each of the entries shown.
# experimental.parameters: 298.15 K; 101 kPa; Liquid
Answers are plain numbers, in kg/m3.

Past entries and their recorded results:
CC(=O)N(C)C [N,N-dimethylethanamide]
936.5
CC#N [acetonitrile]
776.8
CN(C)C=O [dimethylformamide]
944.6
NC=O [formamide]
1129

Here is the next item to consider.
Per the records, this compound ( CNC(C)=O [N-methylacetamide] ) has mass density equal to 954.2

* * *

# experimental.parameters: 303.15 K; 101 kPa; Liquid
Numbers after ± are expanded uncertainties.
Provide the recorded mass density for the entries that follow.
Output should be the measured figure followed by the unit it is expressed in.

For orientation, consider the following solved cases.
NC=O [formamide]
1125 ± 1.2 kg/m3
CC#N
771.5 ± 0.8 kg/m3
CC(=O)N(C)C [N,N-dimethylethanamide]
932 ± 1 kg/m3
CNC(C)=O [N-methylacetamide]
950.1 ± 1 kg/m3

As a next step, examine the molecule that follows.
The molecule CN(C)C=O [dimethylformamide] showed mass density equal to 940.1 ± 1 kg/m3

* * *

# experimental.parameters: 318.15 K; 101 kPa; Liquid
metric.name: mass density (kg/m3)
Numbers only, in kg/m3.

Check out these entries, answers already filled in.
CC(=O)N(C)C [N,N-dimethylethanamide]
918.6
CNC(C)=O [N-methylacetamide]
937.6
CC#N
755.7
NC=O [formamide]
1113

Documented mass density of CN(C)C=O [dimethylformamide] : 926.7

* * *

# experimental.parameters: 308.15 K; 101 kPa; Liquid
Binary call on mass density: Y from 900 kg/m3 upward, N beneath that.

See these solved cases before continuing.
CC#N
N
CNC(C)=O [N-methylacetamide]
Y
CC(=O)N(C)C [N,N-dimethylethanamide]
Y
CN(C)C=O [dimethylformamide]
Y

Is it the case that NC=O [formamide] has mass density reaching or exceeding 900 kg/m3?
Y

* * *

Would you kindly list mass density for each of these compounds?
# experimental.parameters: 293.15 K; 101 kPa; Liquid
Give bare numbers, in kg/m3.

Each of the following entries comes with a recorded value; kindly state mass density for each.
1. NC=O [formamide]
2. CC#N
3. CNC(C)=O [N-methylacetamide]

1. 1133
2. 782.1
3. 958.4

Required: mass density, one value per compound below.
1. CC(=O)N(C)C [N,N-dimethylethanamide]
2. CN(C)C=O [dimethylformamide]

1: 941; 2: 949.1
